Reported MIC S. pneumo. 1175 is given for each of the following compounds.
# Tested on: Streptococcus pneumoniae 1175
# Format: cell-based
# Condition Parameters: S. pneumoniae 1175 (mefA); microtiter broth dilution
# From the text: The assay described herein includes a panel of bacterial strains assembled to include a variety of target pathogenic species, including representatives of macrolide resistance mechanisms that have been characterized. In many cases, both the macrolide-susceptible parent strain and the macrolide-resistant strain derived from it are available to provide a more accurate assessment of the compound's ability to circumvent the resistance mechanism. […]
Numbers only here, please. The scale is mg/L.

{"Compound": "CCC1OC(=O)C(C)C(=O)C(C)C(OC2OC(C)CC(N(C)C)C2O)C(C)(OC)CC(C)C(=O)C(C)C2N(CC3CCCN3Cc3cccc4cccnc34)C(=O)OC12C (centres unmarked) [10.05]", "Quantitative Result": 0.12}

We next turn to a different compound, shown below.
Please fill in: MIC S. pneumo. 1175 reported for CCC1OC(=O)C(C)C(=O)C(C)C(OC2OC(C)CC(N(C)C)C2O)C(C)(OC)CC(C)C(=O)C(C)C2N(CC3CCN(C(=O)c4ccc5cnccc5n4)C3)C(=O)OC12C (centres unmarked) [13.09] = 1

* * *

# System: Haemophilus influenzae 1218
# Protocol Summary: MIC, microtiter broth dilution (NCCLS M100-S14), H. influenzae 1218 (susceptible)
# Type: cell-based
# Condition Parameters: Haemophilus influenzae 1218
# Description: The assay described herein includes a panel of bacterial strains assembled to include a variety of target pathogenic species, including representatives of macrolide resistance mechanisms that have been characterized. In many cases, both the macrolide-susceptible parent strain and the macrolide-resistant strain derived from it are available to provide a more accurate assessment of the compound's ability to circumvent the resistance mechanism. […]
Recorded Metric: MIC H. influenzae 1218 (µg/mL)
Numbers only here, please. The scale is µg/mL.

{"Compound": "CCC1OC(=O)C(C)C(=O)C(C)C(OC2OC(C)CC(N(C)C)C2O)C(C)(OC)CC(C)C(=O)C(C)C2N(CC3CN(Cc4cn5cccnc5n4)C3)C(=O)OC12C (centres unmarked) [4.27]", "Recorded Metric": "MIC H. influenzae 1218", "Quantitative Result": 1}
{"Compound": "CCC1OC(=O)C(C)C(=O)C(C)C(OC2OC(C)CC(N(C)C)C2O)C(C)(OC)CC(C)C(=O)C(C)C2N(C3CN(S(=O)(=O)c4c[nH]c(=O)[nH]c4=O)C3)C(=O)OC12C (centres unmarked) [Example 3.30]", "Recorded Metric": "MIC H. influenzae 1218", "Quantitative Result": 32}
{"Compound": "CCC1OC(=O)C(C)C(=O)C(C)C(OC2OC(C)CC(N(C)C)C2O)C(C)(OC)CC(C)C(=O)C(C)C2N(C3CN(Cc4ccc5nccnc5c4)C3)C(=O)OC12C (centres unmarked) [Example 1.28]", "Recorded Metric": "MIC H. influenzae 1218", "Quantitative Result": 0.5}

Tested on Haemophilus influenzae 1218: CCC1OC(=O)C(C)C(=O)C(C)C(OC2OC(C)CC(N(C)C)C2O)C(C)(OC)CC(C)C(=O)C(C)C2N(C3CN(S(=O)(=O)c4cccc(C#N)c4)C3)C(=O)OC12C (centres unmarked) [Example 3.10] . Observed MIC H. influenzae 1218: 0.25

* * *

Reported MIC H. influenzae 1218 is given for each of the following molecules.
# Tested on: Haemophilus influenzae 1218
# Protocol Summary: MIC, microtiter broth dilution (NCCLS M100-S14), H. influenzae 1218 (susceptible)
# Assay type: cell-based
# Condition Parameters: Haemophilus influenzae 1218
Form entry: enter the amount, then its unit.

{"Molecule": "CC[C@H]1OC(=O)[C@H](C)C(=O)[C@H](C)[C@@H](O[C@@H]2O[C@H](C)C[C@H](N(C)C)[C@H]2O)[C@](C)(OC)C[C@@H](C)C(=O)[C@H](C)[C@H]2N(C3CN(C(C)c4ccnc5ccccc45)C3)C(=O)O[C@]12C (stereo partly drawn) [Example 1.62]", "MIC H. influenzae 1218": "0.5 µg/mL"}

We next turn to a different molecule, shown below.
Please fill in: MIC H. influenzae 1218 reported for CCC1OC(=O)C(C)C(=O)C(C)C(OC2OC(C)CC(N(C)C)C2O)C(C)(OC)CC(C)C(=O)C(C)C2N(C3CN(C(C)c4ccnc5cccnc45)C3)C(=O)OC12C (stereo not drawn) [Example 1.38] = 1 µg/mL

* * *

# Tested on: Streptococcus pneumoniae 1175
# Format: cell-based
# Condition Parameters: Streptococcus pneumoniae 1175; microtiter broth dilution
Recorded Metric: MIC S. pneumo. 1175

Example cases with answers are listed next.
{"Molecule": "CC[C@H]1OC(=O)[C@H](C)[C@@H](OC(=O)N2CCCC2C)[C@H](C)[C@@H](O[C@@H]2O[C@H](C)C[C@H](N(C)C)[C@H]2O)[C@](C)(OC)C[C@@H](C)C(=O)[C@H](C)[C@H]2N(CC3CN(Cc4cccc5cccnc45)C3)C(=O)O[C@]12C (some centres unmarked) [Example 5.04]", "Recorded Metric": "MIC S. pneumo. 1175", "Result": "<0.06 µg/mL"}
{"Molecule": "CC[C@H]1OC(=O)[C@H](C)[C@@H](OC(=O)N2CCCC2)[C@H](C)[C@@H](O[C@@H]2O[C@H](C)C[C@H](N(C)C)[C@H]2O)[C@](C)(OC)C[C@@H](C)C(=O)[C@H](C)[C@H]2N(CC3CN(C(=O)c4ccnc5ccccc45)C3)C(=O)O[C@]12C [Example 5.01]", "Recorded Metric": "MIC S. pneumo. 1175", "Result": "<0.06 µg/mL"}
{"Molecule": "CCC1OC(=O)C(C)C(=O)C(C)C(OC2OC(C)CC(N(C)C)C2O)C(C)(OC)CC(C)C(=O)C(C)C2N(C3CN(Cc4ccnc5ccc(OC)cc45)C3)C(=O)OC12C (centres unmarked) [Example 1.90]", "Recorded Metric": "MIC S. pneumo. 1175", "Result": "<0.063 µg/mL"}
{"Molecule": "CCC1OC(=O)C(C)C(=O)C(C)C(OC2OC(C)CC(N(C)C)C2O)C(C)(OC)CC(C)C(=O)C(C)C2N(CC3CN(C(=O)c4ccnc5ccccc45)C3)C(=O)OC12C.O=CO (centres unmarked) [4.37]", "Recorded Metric": "MIC S. pneumo. 1175", "Result": "<0.06 µg/mL"}

Please fill in: MIC S. pneumo. 1175 reported for CCC1OC(=O)C(C)C(=O)C(C)C(OC2OC(C)CC(N(C)C)C2O)C(C)(OC)CC(C)C(=O)C(C)C2N(C3CN(S(=O)(=O)c4ccc5sc(C)nc5c4)C3)C(=O)OC12C (centres unmarked) [Example 3.90] = <0.06 µg/mL

* * *

# Test system: Streptococcus pneumoniae 1175
# Format: cell-based
# Condition Parameters: Streptococcus pneumoniae 1175; microtiter broth dilution
Recorded Metric: MIC S. pneumo. 1175

Example cases with answers are listed next.
{"Compound": "CCC1OC(=O)C(C)C(=O)C(C)C(OC2OC(C)CC(N(C)C)C2O)C(C)(OC)CC(C)C(=O)C(C)C2N(C3CN(S(=O)(=O)c4cccc(-c5cccnn5)c4)C3)C(=O)OC12C (stereo not drawn)", "MIC S. pneumo. 1175": "<0.06 µg/mL"}
{"Compound": "CCC1OC(=O)C(C)C(=O)C(C)C(OC2OC(C)CC(N(C)C)C2O)C(C)(OC)CC(C)C(=O)C(C)C2N(C3CN(S(=O)(=O)c4cccnc4OC)C3)C(=O)OC12C (stereo not drawn)", "MIC S. pneumo. 1175": "<0.06 µg/mL"}

We next turn to a different compound, shown below.
Please fill in: MIC S. pneumo. 1175 reported for CCC1OC(=O)C(C)C(=O)C(C)C(OC2OC(C)CC(N(C)C)C2O)C(C)(OC)CC(C)C(=O)C(C)C2N(C3CN(S(=O)(=O)c4ccc(N5CCOCC5)c(F)c4)C3)C(=O)OC12C (stereo not drawn) = <0.06 µg/mL

* * *

# System: Haemophilus influenzae 1218
# Protocol Summary: MIC, microtiter broth dilution (NCCLS M100-S14), H. influenzae 1218 (susceptible)
# Assay type: cell-based
# Condition Parameters: Haemophilus influenzae 1218
Recorded Metric: MIC H. influenzae 1218 (µg/mL)
Numbers only here, please. The scale is µg/mL.

{"Molecule": "CCC1OC(=O)C(C)C(=O)C(C)C(OC2OC(C)CC(N(C)C)C2O)C(C)(OC)CC(C)C(=O)C(C)C2N(C3CN(S(=O)(=O)c4ccc5c(cnn5C)c4)C3)C(=O)OC12C (centres unmarked)", "Recorded Metric": "MIC H. influenzae 1218", "Quantitative Result": 0.25}

We next turn to a different molecule, shown below.
Please fill in: MIC H. influenzae 1218 reported for CC[C@H]1OC(=O)[C@H](C)[C@@H](OC(=O)N2CCCC2)[C@H](C)[C@@H](O[C@@H]2O[C@H](C)C[C@H](N(C)C)[C@H]2O)[C@](C)(OC)C[C@@H](C)C(=O)[C@H](C)[C@H]2N(CC3CN(Cc4cccc5cccnc45)C3)C(=O)O[C@]12C = 2
